assay: gradient 5% acetonitrile 3 min, to 50% in 2 min, to 85% in 15 min, held 3 min, 100 µL/min; details: column: Zorbax Extend-C18 2.1 x 50 mm; eluents: water / acetonitrile, 0.1% formic acid
Measurement label: RP-LC retention time (s)
Response body: numeric value in s, unit text excluded.

CC1Cc2ccccc2N1C(=O)c1ccc(=O)n(CCC(=O)NC2CCCCCC2)n1 (centres undefined)	861

Which RP-LC retention time is listed for Cc1ccc(S(=O)(=O)N2CCCC(c3nnc(CC(C)(C)C)o3)C2)cc1C (centres undefined) ?
1030

Fill blank: measured RP-LC retention time of the compound CCN(CC)C(=O)c1ccc(-c2nc3cc(NS(=O)(=O)c4ccccc4C)ccc3n2C)cc1 is ____.
694

Field request: RP-LC retention time | item: CCOC(=O)c1c(C)[nH]c(C(=O)N2CCC(C(C)C(=O)N3CCCC3)CC2)c1C (centres undefined)
715

Which RP-LC retention time reading was recorded for the compound CC(C(=O)NCCSc1nncn1C)n1nnc2ccccc2c1=O (centres undefined) ?
578

What value of measured RP-LC retention time is listed for COC(=O)c1sc2cccc(F)c2c1S(=O)(=O)N1CCC(C(N)=O)(N2CCCCC2)CC1 ?
649

Field request: RP-LC retention time | item: O=C(c1cc(F)cc(F)c1)N1CCCC(c2ccnc(-c3cccc(F)c3)n2)C1 (centres undefined)
1120

// query RP-LC retention time value for entry Cc1noc(C)c1S(=O)(=O)N(Cc1cccs1)Cc1cccn1C
1000

Recorded RP-LC retention time of Cc1ccccc1NC(=O)C1CCN(C(=O)C2Sc3ccccc3NC2=O)CC1 (centres undefined) , please.
741
